Assay: qHTS of pediatric cancer cell lines to identify multiple opportunities for drug repurposing: Primary screen for SK-N-SH cells (AID 1347098); note: nearly all actives have a fitted effect of over 65% in size
Settings: SK-N-SH viability, CellTiter-Glo luminescence, 48 h; series mostly up to 57 µM
Results filed as inconclusive are left out. The source made the active and inactive calls. Calls come from the whole dose curve; as a rule, active = well fitted cell-killing curve with a large enough effect; inconclusive = small, poorly fitted or top-dose-only effect; inactive = no such curve, though single readings can be large or run the other way.
Classes used: active, inactive

{"columns": ["compound", "class-assignment"],
 "data": [
  ["COc1cc2nccc(Oc3ccc(NC(=O)NC4CC4)c(Cl)c3)c2cc1C(N)=O", "active"],
  ["Cc1c(C)c2c(c(C)c1O)CCC(C)(COc1ccc(CC3SC(=O)NC3=O)cc1)O2 (stereo unspecified)", "inactive"],
  ["CC(C)C[C@H](NC(=O)[C@@H](O)[C@H](N)Cc1ccccc1)C(=O)O", "active"],
  ["CC(=O)NC(C)c1ccc(Oc2ccc(OC(C)C)cc2)cc1 (stereo unspecified)", "inactive"],
  ["CCCCNc1cc(C(=O)O)cc(S(N)(=O)=O)c1Oc1ccccc1", "inactive"],
  ["CC(C=CC1=C(C)CCCC1(C)C)=CC=CC(C)=CC(=O)O", "inactive"],
  ["CN(C)c1ccc(C2Nc3ccc4ccccc4c3C3=C2C(=O)CC(C)(C)C3)cc1Br (stereo unspecified)", "inactive"],
  ["CCCS(=O)(=O)Nc1ccc(F)c(C(=O)c2c[nH]c3ncc(-c4ccc(Cl)cc4)cc23)c1F", "active"],
  ["O=C(O)[C@@H](c1ccc(OCc2ccc3ccccc3n2)cc1)C1CCCC1", "inactive"],
  ["CS(=O)(=O)Oc1ccc2c(NC(N)=O)c(C(=O)c3ccc(Cl)cc3Cl)oc2c1", "active"],
  ["N=c1nc(N2CCCCC2)cc(N)n1O", "inactive"],
  ["Clc1ccc(Nc2nnc(Cc3ccncc3)c3ccccc23)cc1", "active"],
  ["Cc1cc([C@@H](C)Nc2ccccc2C(=O)O)c2nc(N3CCOCC3)cc(=O)n2c1", "active"],
  ["Nc1nc2[nH]cc(CCc3ccc(C(=O)N[C@@H](CCC(=O)O)C(=O)O)cc3)c2c(=O)[nH]1", "inactive"],
  ["C[C@]12CC[C@H](O)CC1=CC[C@@H]1[C@H]2CC[C@]2(C)C(c3cccnc3)=CC[C@H]12", "inactive"],
  ["CN(C)c1ccc(Nc2nc(N)n(C(=O)c3c(F)cccc3F)n2)cc1", "active"],
  ["CC(c1cc2ccccc2s1)N(O)C(N)=O (stereo unspecified)", "inactive"],
  ["O=C1CCC(N2C(=O)c3ccccc3C2=O)C(=O)N1 (stereo unspecified)", "inactive"],
  ["O=c1[nH]cnc2[nH]ncc12", "inactive"],
  ["CCOc1cc(C(=O)Nc2ccc(Cl)c(-c3nc4ccccc4[nH]3)c2)cc(OCC)c1OCC", "active"],
  ["O=C(C=Cc1ccc(/C=C/C(=O)Nc2ccc(C3=NCCN3)cc2)cc1)Nc1ccc(C2=NCCN2)cc1", "inactive"]
]}
